Data origin: patent US10206907B2

Molecular target: Recombinant human JAK2 catalytic domain (Homo sapiens (Human))
Sequence (O60674 808-1132): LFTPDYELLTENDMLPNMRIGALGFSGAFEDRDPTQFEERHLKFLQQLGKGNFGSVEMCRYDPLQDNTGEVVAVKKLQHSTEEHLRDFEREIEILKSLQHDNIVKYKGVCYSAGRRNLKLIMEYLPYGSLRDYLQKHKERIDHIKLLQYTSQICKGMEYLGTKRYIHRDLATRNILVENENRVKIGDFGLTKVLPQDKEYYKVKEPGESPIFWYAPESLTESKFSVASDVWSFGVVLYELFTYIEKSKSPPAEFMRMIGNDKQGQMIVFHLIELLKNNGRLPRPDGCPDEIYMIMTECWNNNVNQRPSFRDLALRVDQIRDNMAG
Test: JAK2 inhibition assay
Format: biochemical
Conditions: semi-quantitative score
Protocol: After 90 min at 30° C., reactions were stopped by adding of 25 μL/well of 150 mM phosphoric acid. […] Plates were washed 6 times with 300 μL per well of a 75 mM phosphoric acid solution and the bottom of the plates was sealed. 40 μL/well of Microscint-20 was added, the top of the plates was sealed and readout was performed using the Topcount (Perkin Elmer). […]

| Molecule | IC50 |
| --- | --- |
| COc1ccc(C(N)=O)cc1NCc1ccc(-c2cccc3nc(NC(=O)C4CC4)nn23)cc1 [Compound 255] | 501 to 1000 nM |
| O=C(Nc1nc2cccc(-c3ccc(CN4CCN(CC(F)(F)F)CC4)cc3)n2n1)C1CC1 [Compound 241] | 101 to 500 nM |
| N#CC1CCN(Cc2ccc(-c3cccc4nc(NC(=O)C5CC5)nn34)cc2)CC1 [Compound 232] | 101 to 500 nM |
| O=C(CCOc1ccccc1)Nc1ccc(-c2cccc3nc(NC(=O)C4CC4)nn23)cc1 [Compound 108] | < 100 nM |
| O=C(Nc1cccnc1)c1ccc(-c2cccc3nc(NC(=O)C4CC4)nn23)cc1 [Compound 206] | 101 to 500 nM |
| O=C(Nc1nc2cccc(-c3ccc(CNC(=O)N4CCOCC4)cc3)n2n1)C1CC1 [Compound 309] | 501 to 1000 nM |
| CCOC1CCN(C(=O)c2ccc(-c3cccc4nc(NC(=O)C5CC5)nn34)cc2)CC1 [Compound 294] | > 1000 nM |
| O=C(Nc1nc2cccc(-c3ccc(CN4CCC(F)(F)C4)cc3)n2n1)C1CC1 [Compound 264] | 101 to 500 nM |
| O=C(Nc1nc2cccc(-c3ccc(C(=O)N4CCOCC4)cc3)n2n1)C1CC1 [Compound 24] | 101 to 500 nM |
| O=C(Nc1nc2cccc(-c3ccc(CNc4ccccc4)cc3)n2n1)C1CC1 [Compound 261] | 101 to 500 nM |
| O=C(Nc1nc2cccc(-c3ccc(C(=O)N4CCC(C(=O)c5ccccc5)CC4)cc3)n2n1)C1CC1 [Compound 74] | 101 to 500 nM |
| O=C(Nc1nc2cccc(-c3ccc(CNc4ccc(N5CCOCC5)nc4)cc3)n2n1)C1CC1 [Compound 237] | 501 to 1000 nM |
| CC1(C)COCCN1Cc1ccc(-c2cccc3nc(NC(=O)C4CC4)nn23)cc1 [Compound 213] | 101 to 500 nM |
| O=C(Nc1nc[nH]n1)c1ccc(-c2cccc3nc(NC(=O)C4CC4)nn23)cc1 [Compound 331] | < 100 nM |
| O=C(Nc1nc2cccc(-c3ccc(CC(=O)N4CCS(=O)(=O)CC4)cc3)n2n1)C1CC1 [Compound 267] | 101 to 500 nM |
| O=C(Nc1nc2cccc(-c3ccc(CN4CC[C@H](O)C4)cc3)n2n1)C1CC1 [Compound 305] | > 1000 nM |
| O=C(Nc1nc2cccc(-c3ccc(OCc4ccc(C(F)(F)F)nc4)cc3)n2n1)C1CC1 [Compound 78] | < 100 nM |
| CN(C)C(=O)C1CN(C(=O)Cc2ccc(-c3cccc4nc(NC(=O)C5CC5)nn34)cc2)C1 [Compound 324] | > 1000 nM |
| O=C(Nc1nc2cccc(-c3ccc(C(=O)N4CCCNCC4)cc3)n2n1)C1CC1 [Compound 28] | > 1000 nM |
| O=C(Nc1nc2cccc(-c3ccc(NCc4ccccc4)nc3)n2n1)C1CC1 [Compound 104] | 101 to 500 nM |
| O=C(Nc1nc2cccc(-c3ccc(C(=O)N4CCCCC4)cc3)n2n1)C1CC1 [Compound 17] | 101 to 500 nM |
| O=C(Nc1nc2cccc(-c3ccc(CCc4ccccn4)cc3)n2n1)C1CC1 [Compound 211] | < 100 nM |
| NC(=O)C1CCN(C(=O)c2ccc(-c3cccc4nc(NC(=O)C5CC5)nn34)cc2)CC1 [Compound 274] | 501 to 1000 nM |
| COc1ccc(CN(C)C(=O)c2ccc(-c3cccc4nc(NC(=O)C5CC5)nn34)cc2)cc1 [Compound 31] | 101 to 500 nM |
| NC(=O)c1ccccc1NCc1ccc(-c2cccc3nc(NC(=O)C4CC4)nn23)cc1 [Compound 306] | < 100 nM |
| O=C(NCCc1ccc(C(F)(F)F)cc1)c1ccc(-c2cccc3nc(NC(=O)C4CC4)nn23)cc1 [Compound 97] | < 100 nM |
| N#Cc1ccc(COc2ccc(-c3cccc4nc(NC(=O)C5CC5)nn34)cc2)cn1 [Compound 176] | < 100 nM |
| O=C(Nc1nc2cccc(-c3ccc(CN4CCOC(c5ccccc5)C4)cc3)n2n1)C1CC1 (centres unmarked) [Compound 231] | 101 to 500 nM |
| N#Cc1ccc(NCc2ccc(-c3cccc4nc(NC(=O)C5CC5)nn34)cc2)c(F)c1 [Compound 258] | < 100 nM |
| O=C(CCc1ccccc1)Nc1ccc(-c2cccc3nc(NC(=O)C4CC4)nn23)cc1 [Compound 109] | < 100 nM |
| Cc1n[nH]c(C)c1CCOc1ccc(-c2cccc3nc(NC(=O)C4CC4)nn23)cc1 [Compound 51] | < 100 nM |
| O=C(Nc1nc2cccc(-c3ccc(CC(=O)N4CCC4)cc3)n2n1)C1CC1 [Compound 318] | 101 to 500 nM |

----------
Listing of entries alongside the reported pEC50.
system: JAK-STAT signalling in HeLa cells; assay: JAK-STAT signalling assay (OSM-triggered pSTAT1(2)-luciferase reporter in HeLa cells); assay type: cell-based; conditions: Homo sapiens; HeLa cells, OSM-triggered pSTAT1(2)-luciferase reporter; read-out: STAT signalling EC50
pEC50: −log10 of the molar value.

| Molecule | pEC50 |
| --- | --- |
| O=C(Nc1nc2cccc(-c3ccc(C(=O)N4CCc5ccccc5C4)cc3)n2n1)C1CC1 [Compound 58] | < 6.00 |
| O=C(Nc1nc2cccc(-c3ccc(C(=O)N4CCC(C(=O)c5ccccc5)CC4)cc3)n2n1)C1CC1 [Compound 74] | < 6.00 |
| O=C(Nc1nc2cccc(-c3ccc(C(=O)N4CCCCC4)cc3F)n2n1)C1CC1 [Compound 89] | < 6.00 |
| O=C(Nc1nc2cccc(-c3cccc(OCc4ccccc4)c3)n2n1)C1CC1 [Compound 14] | < 6.00 |
| O=C(Nc1nc2cccc(-c3ccc(NCCc4ccccc4)nc3)n2n1)C1CC1 [Compound 123] | < 6.00 |
| CN(C)C1CCN(C(=O)c2ccc(-c3cccc4nc(NC(=O)C5CC5)nn34)cc2)C1 (centres unmarked) [Compound 289] | < 6.00 |
| COc1ccc(NC(=O)c2ccc(-c3cccc4nc(NC(=O)C5CC5)nn34)cc2)cn1 [Compound 203] | < 6.00 |
| Cc1noc(C)c1COc1ccc(-c2cccc3nc(NC(=O)C4CC4)nn23)cc1 [Compound 49] | < 6.00 |
| O=C(Nc1nc2cccc(-c3ccc(C(=O)N4CCN(c5cccc(Cl)c5)CC4)cc3)n2n1)C1CC1 [Compound 113] | < 6.00 |
| O=C(Nc1nc2cccc(-c3ccc(CNc4ccccc4F)cc3)n2n1)C1CC1 [Compound 226] | 6.30 to 7.00 |
| CC(=O)N(Cc1ccc(C#N)nc1)c1ccc(-c2cccc3nc(NC(=O)C4CC4)nn23)cc1 [Compound 297] | < 6.00 |
| O=C(Nc1nc2cccc(-c3ccc(OCc4cccnc4)cc3)n2n1)C1CC1 [Compound 36] | 6.30 to 7.00 |
| CN(CCc1ccccc1)C(=O)c1ccc(-c2cccc3nc(NC(=O)C4CC4)nn23)cc1 [Compound 96] | < 6.00 |
| N#Cc1ccc(OC2CN(Cc3ccc(-c4cccc5nc(NC(=O)C6CC6)nn45)cc3)C2)cc1 [Compound 278] | < 6.00 |
| CN(Cc1ccccc1)c1ccc(-c2cccc3nc(NC(=O)C4CC4)nn23)cc1 [Compound 157] | < 6.00 |
| COc1ccc(NCc2ccc(-c3cccc4nc(NC(=O)C5CC5)nn34)cc2)cn1 [Compound 236] | 6.00 to 6.30 |
| O=C(Nc1nc2cccc(-c3ccc(-c4ccccc4)cc3)n2n1)C1CC1 [Compound 7] | < 6.00 |

----------
IC50 values for the compounds below.
Molecular target: Recombinant human JAK1 catalytic domain (Homo sapiens (Human), UniProt P23458)
Sequence (P23458 850-1154): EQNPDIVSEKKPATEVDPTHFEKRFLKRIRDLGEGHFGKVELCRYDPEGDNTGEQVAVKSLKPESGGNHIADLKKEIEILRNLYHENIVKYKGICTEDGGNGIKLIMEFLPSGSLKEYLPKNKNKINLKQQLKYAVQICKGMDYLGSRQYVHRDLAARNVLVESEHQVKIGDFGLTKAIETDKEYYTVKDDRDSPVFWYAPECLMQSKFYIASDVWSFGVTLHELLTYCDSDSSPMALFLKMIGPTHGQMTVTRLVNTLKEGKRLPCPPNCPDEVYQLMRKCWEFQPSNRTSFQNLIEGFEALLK
Assay: JAK1 inhibition assay
Type: biochemical
Conditions: semi-quantitative score
Experimental: Plates were washed 6 times with 300 μL per well of a 75 mM phosphoric acid solution and the bottom of the plates was sealed. 40 μL/well of Microscint-20 was added, the top of the plates was sealed and readout was performed using the Topcount (Perkin Elmer). Kinase activity was calculated by subtracting counts per minute (cpm) obtained in the presence of a positive control inhibitor (10 μM staurosporine) from cpm obtained in the presence of vehicle. […]

| Compound | IC50 |
| --- | --- |
| CC(=O)N(Cc1cccnc1)c1ccc(-c2cccc3nc(NC(=O)C4CC4)nn23)cc1 [Compound 202] | < 0.1 µM |
| Cc1nc(COc2ccc(-c3cccc4nc(NC(=O)C5CC5)nn34)cc2)c(C)o1 [Compound 63] | 0.101 to 0.5 µM |
| O=C(Nc1nc2cccc(-c3ccc(COc4ccccc4)cc3)n2n1)C1CC1 [Compound 238] | < 0.1 µM |
| O=C(Nc1nc2cccc(-c3ccc(-c4cccnc4)nc3)n2n1)C1CC1 [Compound 68] | 0.101 to 0.5 µM |
| CC1CCCN(C(=O)c2ccc(-c3cccc4nc(NC(=O)C5CC5)nn34)cc2)C1 (stereo not shown) [Compound 145] | < 0.1 µM |
| O=C(NCCc1cnn(-c2ccccc2)c1)c1ccc(-c2cccc3nc(NC(=O)C4CC4)nn23)cc1 [Compound 106] | < 0.1 µM |
| COc1ccc(CN(C)C(=O)c2ccc(-c3cccc4nc(NC(=O)C5CC5)nn34)cc2)cc1 [Compound 31] | < 0.1 µM |
| CN(CCc1ccccc1)C(=O)c1ccc(-c2cccc3nc(NC(=O)C4CC4)nn23)cc1 [Compound 96] | < 0.1 µM |
| O=C(Nc1nc2cccc(-c3cnc(N4CCCC4)nc3)n2n1)C1CC1 [Compound 4] | 0.501 to 1 µM |
| O=C(Nc1nc2cccc(-c3ccc(C(=O)N4CC(N5CCOCC5)C4)cc3)n2n1)C1CC1 [Compound 326] | 0.101 to 0.5 µM |
| O=C(Nc1nc2cccc(-c3ccc(C(=O)N4CCS(=O)(=O)CC4)cc3)n2n1)C1CC1 [Compound 207] | < 0.1 µM |
| CN1CCN(c2ccc(NC(=O)c3ccc(-c4cccc5nc(NC(=O)C6CC6)nn45)cc3)cn2)CC1 [Compound 205] | 0.101 to 0.5 µM |
| O=C(Nc1nc2cccc(-c3ccc(OCc4ccccc4)c(F)c3)n2n1)C1CC1 [Compound 15] | < 0.1 µM |
| O=C(Nc1nc2cccc(-c3cn(Cc4ccc(C(F)(F)F)nc4)nn3)n2n1)C1CC1 [Compound 188] | > 1 µM |
| O=C(Nc1nc2cccc(-c3ccc4c(ccn4C(=O)CCc4ccccc4)c3)n2n1)C1CC1 [Compound 179] | < 0.1 µM |
| CN1CCN(c2ccc(COc3ccc(-c4cccc5nc(NC(=O)C6CC6)nn45)cc3)cn2)CC1 [Compound 167] | 0.101 to 0.5 µM |
